target-or-system: Adenine DNA glycosylase (Homo sapiens);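 also: human MUTYH activity read as 594 nm fluorescence from cleavage and release of a quenched DNA duplex, coupled with APE1 for strand incision, lower signal meaning inhibition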
recorded-conditions: Compound Concentration 10.0 uM, Hit No
Description: Inhibition of MUTYH by quantifying inhibition of MUTYH-mediated cleavage and dissociation of quenched duplex DNA oligonucleotides, measured as fluorescence at 594 nm. To generate a functional strand incision and increase turn-over this assay is coupled to APE1.
Each entry below lists one item and its recorded inhibition value.
reported-property: inhibition (%)

| molecule | reported-property | recorded-number |
| --- | --- | --- |
| CN1CCN2c3ncccc3Cc3ccccc3C2C1 (stereo not given) | inhibition | -2.92 |
| Cc1oc2ccccc2c1Cc1cc(I)c(OCC(=O)O)c(I)c1 | inhibition | 29.3 |
| CN(C)c1ncnc(-c2ccc3nc(Nc4cc(CN5CCN(C(=O)CC(F)(F)F)CC5)ccn4)[nH]c3c2)c1Cl | inhibition | -7.96 |
| COc1ccc(CC(=O)NC(N/C(=N/C#N)Nc2cccc3ncccc23)C(C)(C)C)cc1OC (stereo not given) | inhibition | 7.91 |
| CCc1nnc(NS(=O)(=O)c2ccc(NC(=S)NC(=O)/C=C/c3ccc(F)cc3)cc2)s1 | inhibition | 54.8 |

----------
Listed here: items and their measured inhibition.
target-or-system: N-glycosylase/DNA lyase (Homo sapiens);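 also: OGG1 cleavage of a quenched duplex DNA oligonucleotide, coupled to APE1 for strand incision, read as fluorescence at 594 nm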
recorded-conditions: Compound Concentration 10.0 uM, Hit No
Description: Inhibition of OGG1 by quantifying inhibition of OGG1-mediated cleavage and dissociation of quenched duplex DNA oligonucleotides, measured as fluorescence at 594 nm. To generate a functional strand incision and increase turn-over this assay is coupled to APE1.

| compound | inhibition (%) |
| --- | --- |
| c1nc(CC2CCNCC2)c[nH]1 | -4.12 |
| CC(C)C(=O)N1CCC(c2cn(C)c3ncc(NC(=O)c4cccc(C#N)c4)c(C(F)(F)F)c23)CC1 | 7.16 |
| CC(C)c1cc(Oc2c(Cl)cc(-n3nc(C#N)c(=O)[nH]c3=O)cc2Cl)n[nH]c1=O | 28.8 |
| Cc1nnn(-c2ccc(-c3ccc(C4(C(=O)O)CC4)cc3)cc2)c1NC(=O)O[C@H](C)c1ccccc1 | -1.41 |
| CCCSc1nc(N[C@@H]2C[C@H]2c2ccc(F)c(F)c2)c2nnn([C@@H]3C[C@H](OCCO)[C@@H](O)[C@H]3O)c2n1 | -6.84 |
| O=C(O)CCCCCC[C@H]1C(=O)NC(=O)N1CCC(O)C1CCCCC1 (stereo partly specified) | -6.34 |
| CCc1ccccc1C(=O)Nc1n[nH]c2c(C)c(F)c(C3C(C#N)=C(C)N(C)C(C)=C3C#N)cc12 | 11.1 |
| COc1ccc2[nH]c(I)c(CCNC(C)=O)c2c1 | -3.69 |
| CC(C)(C)NCC(O)COc1cccc2[nH]c(=O)[nH]c12 (stereo unspecified) | -2.11 |
| Nc1ncnc2c1ncn2[C@@H]1O[C@H](COP(=O)(O)OP(=O)(O)O)[C@@H](O)[C@H]1O | -9.66 |
| CC(C)NC(=O)c1ccc(C#Cc2ccncc2)cn1 | 2.41 |
| COC1CCN(c2cccc(-c3cc(NC(C)=O)nc(-n4nc(C)cc4C)n3)n2)CC1 | -4.31 |
| CCNC(=O)c1cc2c(N3CCOCC3C)ccnc2[nH]1 (stereo unspecified) | -6.36 |
| CCCCCCCCc1ccc(CC[C@](N)(CO)COP(=O)(O)O)cc1 | 0.481 |
| Cn1c(=O)n(CCCO)c(=O)c2c1nc(Oc1cccc(Cl)c1)n2Cc1ccc(Cl)cc1 | -1.16 |
| CN1CCN2c3ncccc3Cc3ccccc3C2C1 (stereo unspecified) | -6.38 |
| OC1(c2ccc(Cl)cc2)CCN(Cc2c[nH]c3ccccc23)CC1 | -9.04 |
| CN(C)c1ncnc(-c2ccc3nc(Nc4cc(CN5CCN(C(=O)CC(F)(F)F)CC5)ccn4)[nH]c3c2)c1Cl | 9.13 |
| O=C(COc1cccc2ccccc12)Nc1cc(Cl)ccc1C(=O)O | 24.8 |
| CC(C)S(=O)(=O)c1ccc2nccc(Nc3ccc4scnc4c3)c2c1 | 12 |
| CN1CCN(C(=O)c2ccc3cc2OCCOCCNc2ccn4ncc-3c4n2)CC1 | 2.08 |
| CC(C)OC(=O)C1=CN(C(=O)c2ccc(F)c(F)c2)CC(C)(C)c2c1[nH]c1ccccc21 | 18.3 |
| O=C(Nc1ccc(Cl)cc1)N[C@@H](Cc1ccccc1)C(=O)N1CCCCC1 | -1.34 |
| O=C(O)C[C@H]1CCc2c1[nH]c1ccc(OCc3ccc(C4CCCC4)c(C(F)(F)F)c3)cc21 | 34.1 |
| CNC(=O)COc1cc2cc(Nc3nc(N4C[C@H](C)C[C@H](C)C4)ncc3Cl)ccc2n(C)c1=O | 1.85 |
| CN1CCN(c2nc3cc(C(F)(F)F)ccc3n3cccc23)CC1 | -6.12 |
| C[C@@H](c1cccc(CN)c1)n1cc(Cl)cc(C(N)=O)c1=N | -2.92 |
| O=C(O)COc1cccc(-c2ocnc2-c2nc(-c3ccccc3)c(-c3ccccc3)o2)c1 | 18.4 |
| CN1CCN(C(=O)C(C)(C)c2ccc(C(=O)Nc3cn4cc(-c5ccncc5)ccc4n3)cc2)CC1 | 0.918 |
| Cn1c(SCc2ccc(C(C)(C)C)cc2)nc(N)cc1=O | -4.44 |
| CCC(C)N(C)C(=O)c1cc2ccccc2c(-c2ccccc2Cl)n1 (stereo unspecified) | 15.1 |
| CCC(=O)NCC[C@@H]1CCc2ccc3c(c21)CCO3 | 6.47 |
| O=c1c2cccn2c2ccccc2n1CCCN1CCC(c2ccc(Cl)cc2)CC1 | -2.48 |
| CC(C)c1cc(-c2ccc(F)c3ccccc23)nc(N)n1 | 2.18 |
| CN(C)C(=O)C(CCN1CCC(O)(c2ccc(Cl)cc2)CC1)(c1ccccc1)c1ccccc1 | -5.28 |
| FC(F)c1nc2ccccc2n1-c1nc(N2CCOCC2)nc(N2CCOCC2)n1 | 3.08 |
| c1ccc2nc(N3CCNCC3)ccc2c1 | -7.23 |
| Cc1noc([C@H]2C[C@@H](c3ccc(C(F)(F)F)cc3)CN(C(=O)N3CCS(=O)(=O)C3)C2)n1 | 1.56 |
| CCCCN(CCCC)C(=O)CN1C[C@@H](c2ccc3c(c2)OCO3)[C@H](C(=O)O)[C@H]1c1ccc(OC)cc1 | 2.58 |
| CCCOc1ccc2[nH]cc(C3=CCNCC3)c2n1 | -9.55 |
| O=C(NCC(=O)N1CC[C@H](N[C@H]2CC[C@@](O)(c3ccc(-c4ncccn4)cn3)CC2)C1)c1cccc(C(F)(F)F)c1 | 1.04 |

Data origin, for the record: ChEMBL document CHEMBL5665443
